# ASSAY_EXPLANATION: Partition coefficient (logP)
# CONDITION_INFO: octanol/water
PROPERTY_NAME: logP

Answered examples (2):
O=c1[nH]c(=O)c2cc(-c3ccccc3)nnc2[nH]1; 1.56
O=C1c2ccccc2-c2nnc(-c3ccccc3O)cc21; 3.15

1. O=C(c1ccccc1)c1ccnnc1
2. O=C1CCCc2nnc(-c3ccccc3)cc21
From the items above, decide which of 1 and 2 has the lower logP reading. Please indicate the selected item by its label.
1

----------
# STUDY_SYSTEM: Amine oxidase [flavin-containing] B (Rattus norvegicus)
# Sequence (P19643 whole entry): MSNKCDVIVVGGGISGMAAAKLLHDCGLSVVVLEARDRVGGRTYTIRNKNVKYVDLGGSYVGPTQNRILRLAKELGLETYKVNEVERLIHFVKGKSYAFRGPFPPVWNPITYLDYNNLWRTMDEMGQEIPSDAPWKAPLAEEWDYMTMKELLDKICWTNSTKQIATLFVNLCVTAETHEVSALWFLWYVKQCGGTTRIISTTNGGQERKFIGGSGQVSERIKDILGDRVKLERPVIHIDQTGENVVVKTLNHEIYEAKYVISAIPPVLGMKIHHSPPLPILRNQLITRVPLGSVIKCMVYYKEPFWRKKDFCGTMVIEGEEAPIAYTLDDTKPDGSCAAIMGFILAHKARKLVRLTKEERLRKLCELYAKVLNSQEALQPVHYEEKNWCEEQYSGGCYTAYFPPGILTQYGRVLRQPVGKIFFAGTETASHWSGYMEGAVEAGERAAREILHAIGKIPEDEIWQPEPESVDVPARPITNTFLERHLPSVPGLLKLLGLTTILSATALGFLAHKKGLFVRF
# ASSAY_EXPLANATION: Inhibitory activity against Monoamine oxidase B from rat brain mitochondria
PROPERTY_NAME: IC50 (µM)

O=C1c2ccccc2-c2cnc(-c3ccccc3)nc21; 11.6

1. O=C1c2ccccc2-c2nc(-c3ccccc3)ncc21
2. O=C1CCCc2nnc(-c3ccccc3)cc21
3. O=C1c2ccccc2-c2nnc(-c3cccc([N+](=O)[O-])c3)cc21
rank_up(items): orders items by reported IC50 in ascending numerical order. Answer format: the labels, ordered as requested.
3, 1, 2

----------
The following compounds have recorded IC50 on Amine oxidase [flavin-containing] A (Rattus norvegicus, UniProt P21396).
Sequence (P21396 whole entry): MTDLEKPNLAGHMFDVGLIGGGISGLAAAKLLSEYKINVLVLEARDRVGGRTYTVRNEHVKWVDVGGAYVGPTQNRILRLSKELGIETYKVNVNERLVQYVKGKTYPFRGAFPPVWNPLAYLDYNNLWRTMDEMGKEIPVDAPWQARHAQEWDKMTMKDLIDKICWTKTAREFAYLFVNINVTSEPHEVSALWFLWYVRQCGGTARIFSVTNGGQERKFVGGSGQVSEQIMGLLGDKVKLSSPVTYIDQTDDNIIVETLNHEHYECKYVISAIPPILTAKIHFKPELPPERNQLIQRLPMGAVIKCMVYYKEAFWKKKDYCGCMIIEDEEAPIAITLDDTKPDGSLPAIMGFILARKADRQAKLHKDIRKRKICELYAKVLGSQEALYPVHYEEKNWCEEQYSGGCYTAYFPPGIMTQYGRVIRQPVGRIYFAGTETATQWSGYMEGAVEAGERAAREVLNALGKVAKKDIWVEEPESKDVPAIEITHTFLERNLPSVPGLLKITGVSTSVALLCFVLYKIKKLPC
PROPERTY_NAME: IC50 (µM)

A. O=C1CCCc2nnc(-c3ccccc3)cc21
B. O=C1c2ccccc2-c2nc(-c3ccccc3)ncc21
Kindly identify which of A and B has the larger recorded IC50 value. Please indicate the selected item by its label.
A

----------
# ASSAY_EXPLANATION: Partition coefficient (logP) (cyclohexane)
# CONDITION_INFO: octanol/water
PROPERTY_NAME: logP

COc1ccc(-c2cc3c(nn2)-c2ccccc2C3=O)cc1; 2.51
O=C1c2ccccc2-c2nnc(-c3ccc(O)cc3)cc21; 0.13
Cc1c(-c2ccccc2)nnc2c1C(=O)c1ccccc1-2; 2.16
Cc1cc2c(nn1)-c1ccccc1C2=O; -0.04

1. O=C1CCCc2nnc(-c3ccccc3)cc21
2. O=C1c2ccccc2-c2nc(-c3ccccc3)ncc21
3. O=C1c2ccccc2-c2nnc(-c3ccccc3F)cc21
4. O=C1c2ccccc2-c2nnccc21
5. O=C1c2ccccc2-c2nncc(-c3ccccc3)c21
rank_up(items): orders items by reported logP in ascending numerical order. Answer format: the labels, ordered as requested.
4, 1, 5, 3, 2
(4: -0.29, 1: 0.6, 5: 1.4, 3: 2.07, 2: 3.15)

A. O=C1c2ccccc2-c2nnc(C(F)(F)F)cc21
B. O=C1c2ccccc2-c2nnc(-c3ccccc3O)cc21
C. O=c1[nH]c(=O)c2cc(-c3ccccc3)nnc2[nH]1
D. O=C1c2ccccc2-c2nnc(-c3ccccc3[N+](=O)[O-])cc21
E. O=C1c2ccccc2-c2nnc(-c3cccc([N+](=O)[O-])c3)cc21
Reorder: logP, max to min. Answer format: the labels, ordered as requested.
B, E, D, A, C

I. O=C1c2ccccc2-c2nnc(-c3ccc([N+](=O)[O-])cc3)cc21
II. O=C(c1ccccc1)c1ccnnc1
From the items above, decide which of I and II has the lower logP reading. Please indicate the selected item by its label.
II
(II: -0.45, I: 2.34)

----------
# ASSAY_EXPLANATION: Partition coefficient (logP) (cyclohexane)
# CONDITION_INFO: octanol/water
PROPERTY_NAME: logP

COc1ccccc1-c1cc2c(nn1)-c1ccccc1C2=O; 2.26
O=C1c2ccccc2-c2nnc(-c3ccc(F)cc3)cc21; 2.56
O=C1c2ccccc2-c2nnc(-c3ccccc3)cc21; 2.34
COc1cccc(-c2cc3c(nn2)-c2ccccc2C3=O)c1; 2.83

Where do these numbers come from? They come from ChEMBL document CHEMBL1131118.
